Data provenance is ChEMBL document CHEMBL1795212.

- System: Plasmodium falciparum
- METHOD SUMMARY: Antimalarial activity against Plasmodium falciparum W2 assessed as plasmodial LDH activity after 72 hrs
- Type: functional, organism-based
- RUN CONDITIONS: Plasmodium falciparum, W2, 72 h; read-out: IC50
MEASURED METRIC: IC50
Remember to put the unit after the number in your answer.

IC50 reading for CCc1ccc(C2OOC(c3ccc(C(=O)NCCCCCCO)cc3)OO2)cc1 (stereo unspecified) : 4810 nM

More entries:
# molecule Cc1ccc(C2OOC(c3ccc(CNc4ccccc4S)cc3)OO2)cc1 (stereo unspecified) ; its IC50 = 1590 nM

Please fill in: IC50 reported for CCc1ccc(C2OOC(c3ccc(CO)cc3)OO2)cc1 (stereo unspecified) = 1090 nM

Just so you know, measured IC50 for Cc1ccc(C2OOC(c3ccc(C(=O)NCCCCCCCN)cc3)OO2)cc1 (stereo unspecified) came out at 4660 nM

Looking up Cc1ccc(C2OOC(c3ccc(CNc4cccc(F)c4)cc3)OO2)cc1 (stereo unspecified) , I see its IC50 listed as 1830 nM

Noted for Cc1ccc(C2OOC(c3ccc(C(=O)NC4CCCCC4)cc3)OO2)cc1 (stereo unspecified) : its IC50 reads 2860 nM

Given item Cc1ccc(C2OOC(c3ccc(/C=N\CCO)cc3)OO2)cc1 (stereo unspecified) , the value recorded as its IC50 is 2370 nM
